# System: luciferase-expressing P. berghei liver stage parasites in HepG2 cells
# measurement.notes: Inhibition of liver-stage development assay (ILSDA), Method 2 (WRAIR, 96-well)
# Type: cell-based, Plasmodium berghei
# condition.notes: Method 2; Decrease = decreasing P. berghei viability with dose, Increase = increasing signal, Inactive = no dose response
endpoint.name: Max Resp (signal direction of the dose response)

// known answers, use as guide
smiles.input	assay.result
CCN(CC)CCCN(c1ccccc1)C1Cc2ccccc2C1.Cl	Decrease
Cc1cccc(N(C)c2nc3ccccc3c3nnc(C)n23)c1	Decrease
O=C(Nc1ncccc1O)c1ccc(S(=O)(=O)Nc2ccccc2)cc1	Inactive
O=C(Nc1ccc(Br)cc1)c1ccc(F)c([S+](=O)([O-])NC2CCCCCC2)c1	Decrease
O=C(Nc1ccccc1O)c1ccc(NC(=O)C2CC2)cc1	Decrease
COc1ccc(-c2nc(C3CC3)nc3c2CCN(Cc2cc(C)on2)CC3)cc1	Decrease
COc1cc(/C=C(\C#N)c2nc3ccccc3[nH]2)ccc1OCc1ccc(F)cc1	Decrease
COc1ccc(-c2ccc3ncc(Nc4ccncc4)n3n2)cc1OC	Inactive
Cc1ccc(Nc2nc(NCCO)c3ccccc3n2)cc1C	Decrease
COc1ccc2nc(C)cc(Nc3ccc(Cl)c(Cl)c3)c2c1	Decrease

// query Max Resp (signal direction of the dose response) value for entry Cc1ccc(NC2=C(c3ccc(C(F)(F)F)cc3)C(=O)c3ccccc32)cc1C
Decrease

Quick one: N=c1c2c(n(Cc3ccccc3)c3c1CCC3)CCC2
Inactive

Quick one: Cc1cc(Nc2ccc(Br)c(C)c2)n2nc(C)nc2n1
Decrease

====

# System: Plasmodium falciparum Dd2 asexual blood stage parasites
# measurement.notes: microbe, parasite or virus in culture
# Parameters: species or system Plasmodium falciparum Dd2 in human erythrocytes; single determination (one 11-point concentration-response curve)
# condition.notes: Plasmodium falciparum, DD2, Erythrocyte, 72 h; read-out: AC50
endpoint.name: AC50
Respond with the figure and its unit, in that order.

// query AC50 value for entry O=C(Nc1ccccc1C(F)(F)F)c1cc(-c2ccccc2O)on1 [MLS000087293-01]
2.99 µM

Quick one: O=C(NCCN1CCCC1)C1CN([S+](=O)([O-])c2cccs2)CC12CCCCC2 (centres unmarked) [NCGC00439935-01]
13.3 µM

Quick one: CCN(CC)[S+](=O)([O-])c1ccc(NC(=O)CCc2c(C)nc3cc(-c4ccc(Cl)cc4)nn3c2C)cc1 [NCGC00110055-01]
4.73 µM

Quick one: COc1ccccc1N1CCN(C(c2cc3ccc(C)cc3nc2O)c2nnnn2C2CCCC2)CC1 (centres unmarked) [MLS000077380-01]
7.5 µM

Quick one: CCOc1ccc(CCNC(=O)c2ccc3c(c2)N(Cc2ccccc2F)C(=O)c2ccccc2[S+]3[O-])cc1OCC (centres unmarked) [NCGC00109590-01]
10.6 µM

Quick one: COc1cc(O)c(C(CCN2CCCCC2)c2ccc3c(c2)OCO3)c(OC)c1 (centres unmarked) [MLS000879495-01]
1.33 µM

Quick one: O=C(NCCNc1ccnc2cc(Cl)ccc12)c1ccccc1F [MLS001163130-01]
1.68 µM

Quick one: COCC(C)n1c(C)cc(C(=O)CSc2nnc(Nc3ccccc3F)s2)c1C (centres unmarked) [MLS000566129-01]
2.99 µM

====

# measurement.notes: in vitro
# condition.notes: human, HepG2-A16-CD81EGFP cells, uninfected
endpoint.name: viability at 48 h, 1 µM (%)
Return type: number; implicit unit %.

// query viability at 48 h, 1 µM value for entry Cc1cc(Cl)c(S(=O)(=O)N2CCN(c3ccccn3)CC2)cc1OCC(=O)NC1CCCCC1 [MLS000693481-01]
91

Quick one: CN(C(=O)c1ccc(NC(=O)Cc2cccc(NC(=O)C3CCCN(C(=O)CCc4ccccc4)C3)c2)cc1)C1CCCC1 (centres unmarked) [MLS002402746-01]
104

Quick one: COc1ccc2c(c1)C1(Nc3ccccc3-c3nc4ccccc4n31)C(=O)N2 (centres unmarked) [MLS000080605-01]
99

Quick one: COc1cccc(N2C(N)=NC(N)=NC2(C)C)c1 [MLS000047853-01]
103

Quick one: C/C(Cl)=C/Cc1c(C)nc2c(ccc3ccccc32)c1O [MLS001211902-01]
86

Quick one: O=S(=O)(c1ccc2ccccc2c1)N1CCN(C(S)=Nc2ccc(F)c(Cl)c2)CC1 [MLS000394708-01]
111

Quick one: COc1cccc(CNCC(O)(c2ccc(Cl)cc2)c2ccc(Cl)cc2)c1 [MLS000325699-01]
106

Quick one: CCCN1C(CC(C)C)=N[S+](=O)([O-])c2cc(NC(=O)c3ccco3)ccc21 [NCGC00473219-01]
103

Quick one: Cc1ccccc1Nc1nnc(SCc2cc(=O)n3ccsc3n2)s1 [MLS000565690-01]
107

Quick one: O=C1C=C(O)C=CC1=CNNc1ccnc2cc(Cl)ccc12 [MLS000759655-01]
101

Quick one: COc1cccc(NC(=O)CN(C)C(=O)c2ccc(-c3ccc(Cl)cc3)o2)c1 [MLS001142098-01]
100

Quick one: CCOc1ccc(NC2=C(OC)C(=O)c3ccccc3C2=O)cc1 [MLS000588108-01]
101

Quick one: N=c1ccn(Cc2ccc(Cl)cc2Cl)cc1 [MLS000554049-01]
89.2

Quick one: Oc1ccc(Br)cc1-c1cc(-c2ccc(Cl)cc2)[nH]n1 [MLS000551526-01]
88

Quick one: COc1ccc(-c2cc(=O)oc3c4c(ccc23)OCN(Cc2ccccc2)C4)cc1 [NCGC00116344-01]
98.2

Quick one: CCn1c(SCC(=O)NCCc2ccccc2)nc2sc3c(c2c1=O)CCN(C)C3 [MLS000332196-01]
96

Quick one: O=C(CN1C2=NCCCN2c2ccccc21)c1ccc(Cl)cc1Cl [MLS000662689-01]
99
